system: S. epidermidis 12228; format: cell-based, Staphylococcus epidermidis
Non-standard residues stand in square brackets, D forms with d. Residues, ends and D or L forms follow the SMILES beside them. ξ: configuration not given here. 2Nal = N[C@@H](Cc1ccc2ccccc2c1)C(=O)O; ξAhp(2) = CCCCCC(N)C(=O)O
Some compounds, each annotated with its measured MIC, S. epidermidis 12228.
experimental.readout: MIC, S. epidermidis 12228 (µM)

* CCCCCC(N)C(=O)NC(CCCCC)C(=O)NC(CCCCC)C(=O)NC(CCCCC)C(=O)N[C@H](CCCNC(=N)N)C(=O)N[C@@H](CCCNC(=N)N)C(=O)N[C@@H](CCCNC(=N)N)C(=O)N1CCC[C@H]1C(=O)O (stereo partly shown) [Peptide B4] (H-[ξAhp(2)][ξAhp(2)][ξAhp(2)][ξAhp(2)][dR]RRP-OH; N-terminus assumed) | 32
* N=C(N)NCCC[C@H](NC(=O)[C@H](Cc1ccc2ccccc2c1)NC(=O)[C@H](Cc1ccc2ccccc2c1)NC(=O)[C@H](Cc1ccc2ccccc2c1)NC(=O)[C@H](Cc1ccc2ccccc2c1)NC(=O)[C@H](Cc1ccc2ccccc2c1)NC(=O)[C@@H](N)Cc1ccc2ccccc2c1)C(=O)N[C@H](CCCNC(=N)N)C(=O)N[C@@H](CCCNC(=N)N)C(=O)N1CCC[C@H]1C(=O)O [Peptide N6] (H-[2Nal][2Nal][2Nal][2Nal][2Nal][2Nal]R[dR]RP-OH) | 256
* N=C(N)NCCC[C@H](NC(=O)[C@@H](CCCNC(=N)N)NC(=O)[C@H](Cc1cccc2ccccc12)NC(=O)[C@H](Cc1cccc2ccccc12)NC(=O)[C@H](Cc1cccc2ccccc12)NC(=O)[C@@H](N)Cc1cccc2ccccc12)C(=O)N[C@@H](CCCNC(=N)N)C(=O)N1CCC[C@H]1C(=O)O (stereo in doubt) [Peptide N4] | 4
* CCCCCC(N)C(=O)NC(CCCCC)C(=O)NC(CCCCC)C(=O)NC(CCCCC)C(=O)NC(CCCCC)C(=O)N[C@H](CCCNC(=N)N)C(=O)N[C@@H](CCCNC(=N)N)C(=O)N[C@@H](CCCNC(=N)N)C(=O)N1CCC[C@H]1C(=O)O (stereo partly shown) [Peptide B5] (H-[ξAhp(2)][ξAhp(2)][ξAhp(2)][ξAhp(2)][ξAhp(2)][dR]RRP-OH; N-terminus assumed) | 256
* C[C@H](N)C(=O)N[C@@H](C)C(=O)N[C@@H](C)C(=O)N[C@H](CCCNC(=N)N)C(=O)N[C@@H](CCCNC(=N)N)C(=O)N[C@@H](CCCNC(=N)N)C(=O)N1CCC[C@H]1C(=O)O [Peptide A3] (H-AAA[dR]RRP-OH) | 256
* CCCCCC(N)C(=O)NC(CCCCC)C(=O)NC(CCCCC)C(=O)N[C@H](CCCNC(=N)N)C(=O)N[C@@H](CCCNC(=N)N)C(=O)N[C@@H](CCCNC(=N)N)C(=O)N1CCC[C@H]1C(=O)O (stereo partly shown) [Peptide B3] (H-[ξAhp(2)][ξAhp(2)][ξAhp(2)][dR]RRP-OH; N-terminus assumed) | 256
* N=C(N)NCCC[C@H](NC(=O)[C@H](Cc1ccc2ccccc2c1)NC(=O)[C@H](Cc1ccc2ccccc2c1)NC(=O)[C@H](Cc1ccc2ccccc2c1)NC(=O)[C@H](Cc1ccc2ccccc2c1)NC(=O)[C@@H](N)Cc1ccc2ccccc2c1)C(=O)N[C@H](CCCNC(=N)N)C(=O)N[C@@H](CCCNC(=N)N)C(=O)N1CCC[C@H]1C(=O)O [Peptide N5] (H-[2Nal][2Nal][2Nal][2Nal][2Nal]R[dR]RP-OH) | 256
